tested on: Danio rerio embryo; experiment: BMC10 any morphological effect or mortality at 120 hpf; higher = less toxic
Measurement Type: BMC10 any morphological effect or mortality

Can you look up the measured BMC10 any morphological effect or mortality of Fc1ccc(CNc2ncnc3ccc(F)cc23)cc1 [Spautin-1] for me? 0.511 µM

Can you look up the measured BMC10 any morphological effect or mortality of CC1(C)CC[C@]2(C(=O)O)CC[C@]3(C)C(=CC[C@@H]4[C@@]5(C)CC[C@H](O)C(C)(C)[C@@H]5CC[C@]43C)[C@@H]2C1 [Oleanolic acid] for me? 3.43 µM

Can you look up the measured BMC10 any morphological effect or mortality of O=c1[nH]c(=O)n([C@H]2C[C@H](O)[C@@H](CO)O2)cc1I [Idoxuridine] for me? > 100 µM

Can you look up the measured BMC10 any morphological effect or mortality of CC(=O)SC[C@H](NC(=O)CC[C@H](N)C(=O)O)C(=O)NCC(=O)O [S-acetyl-L-Glutathione] for me? > 100 µM

Can you look up the measured BMC10 any morphological effect or mortality of N[C@H]1CONC1=O [L-Cycloserine] for me? > 100 µM

Can you look up the measured BMC10 any morphological effect or mortality of Oc1cc(O)cc(/C=C/c2ccc(O)cc2O)c1 [Oxyresveratrol] for me? > 100 µM

Can you look up the measured BMC10 any morphological effect or mortality of O=C(CCc1ccc(O)cc1)c1c(O)cc(O[C@@H]2O[C@H](CO)[C@@H](O)[C@H](O)[C@H]2O)cc1O [Trilobatin] for me? > 100 µM

Can you look up the measured BMC10 any morphological effect or mortality of CC(=O)Nc1ccc(C(=O)O)cc1.CC(=O)Nc1ccc(C(=O)O)cc1.CC(=O)Nc1ccc(C(=O)O)cc1.CC(O)CN(C)C.CC(O)CN(C)C.CC(O)CN(C)C.O=c1nc[nH]c2c1ncn2[C@@H]1O[C@H](CO)[C@@H](O)[C@H]1O [Inosine] for me? > 100 µM

Can you look up the measured BMC10 any morphological effect or mortality of Cc1sc2c(c1C)C(c1ccc(Cl)cc1)=N[C@@H](CC(=O)OC(C)(C)C)c1nnc(C)n1-2 [(+)-JQ1] for me? 1.13 µM

Can you look up the measured BMC10 any morphological effect or mortality of C[C@@H]1O[C@@H](O[C@@H]2[C@@H](O)[C@H](OCCc3ccc(O)c(O)c3)O[C@H](CO)[C@H]2OC(=O)/C=C/c2ccc(O)c(O)c2)[C@H](O)[C@H](O)[C@H]1O [Verbascoside] for me? > 100 µM

Can you look up the measured BMC10 any morphological effect or mortality of CO[C@H]1O[C@@H]2O[C@@]3(C)CC[C@H]4[C@H](C)CC[C@@H]([C@H]1C)[C@@]24OO3 [Artemether] for me? 3.55 µM

Can you look up the measured BMC10 any morphological effect or mortality of CC(C)(C)[C@@H]1NC(=O)O[C@@H]2CCC[C@H]2OC/C=C/C(F)(F)c2nc3ccccc3nc2O[C@@H]2C[C@@H](C(=O)N[C@]3(C(=O)NS(=O)(=O)C4(C)CC4)C[C@H]3C(F)F)N(C2)C1=O [Glecaprevir] for me? > 100 µM

Can you look up the measured BMC10 any morphological effect or mortality of Nc1nc2c(ncn2COCCO)c(=O)[nH]1 [Acyclovir] for me? > 100 µM
